Here is a set of compounds with reported IC50 for UniProt:Q02769, compiled from the literature.
Numbers only; they are read as nM.

For the compound CC(C)(C)CN1C(=O)[C@@H](CC(=O)O)[S+]([O-])[C@H](c2ccccc2Cl)c2cc(Cl)ccc21 (relative stereo) , report IC50.
700

Specify reported IC50 for the compound shown: CO[C@@H]1CN(c2ccc(C#CC3(O)CCCNC3)c(Cc3ccccc3)n2)C[C@H]1O (some centres unmarked)
1.4

Input CC=CCCCCC=CCCCCC(=O)OC1C(O)C2(CCC(C)C(O)C(C)CC=Cc3ccccc3)OC(C(=O)O)C(O)(C(=O)O)C1(C(=O)O)O2 (centres unmarked) , output reported IC50.
5

Item CC1(C)CC2CC(C)(CN2CCC(O)(P(=O)(O)O)P(=O)(O)O)C1 (centres unmarked) : provide IC50
5060

Please give measured IC50 of the following entry: CC(C)=CCC/C(C)=C/CC/C(C)=C/C=C/CC(C(=O)O)P(=O)(O)O (centres unmarked)
600

Determine its reported IC50: O=P(O)(O)CCCN1CCC=C(c2ccc(-c3nc4ccccc4o3)cc2)C1
17000

Let me know recorded IC50 for COc1cccc([C@H]2S[C@H](Cc3nnn[nH]3)C(=O)N(CC(C)(C)C)c3ccc(Cl)cc32)c1OC , thanks.
16
